Test system: mock-infected MT-4 cells
assayInfo: Method B: cytotoxicity in mock-infected MT-4 cells engineered with GFP under a constitutional promotor
Type: cell-based
Listing: pCC50 (−logCC50) of selected compounds

compound	systemTested	pCC50 (−logCC50)
CC(=CC#N)c1cc(C)c(Nc2nc(Nc3ccc(C#N)cc3)nc3[nH]cnc23)c(C)c1 [Compound 56]	mock-infected MT-4 cells	<4.6
COc1ccc(Cn2cnc3nc(Nc4ccc(C#N)cc4)nc(Oc4c(OC)cc(/C=C/C#N)cc4OC)c32)cc1 [Compound 19]	mock-infected MT-4 cells	<4.6
Cc1cc(C#N)cc(C)c1Nc1nc(Nc2ccc(C#N)cc2)nc2c1ncn2C [Compound 46]	mock-infected MT-4 cells	<4.6
